# Experiment description: Biodistribution in rats
# Format: in vivo, male rats
# Conditions used: 240 min post-injection, i.v.
Under this convention, Met denotes Gut strictly below 40 percent injected dose and Not met denotes Gut at or above 40 percent injected dose.

CC(C)(NCCCCNC(C)(C)C(Cn1ccnc1[N+](=O)[O-])=NO)C(Cn1ccnc1[N+](=O)[O-])=NO | Not met

Ask: Gut under 40 percent injected dose? Item: CC(=NO)C(C)(C)NCCCNC(C)(C)C(Cn1ccnc1[N+](=O)[O-])=NO [Compound V, reference compound]
Result: Not met

Ask: Gut under 40 percent injected dose? Item: CC(=NO)C(C)(C)NCCCNC(C)(C)C(C)=NO [Compound X, reference compound]
Result: Not met
